Molecular target: 5-HT1A (Homo sapiens, UniProt P08908)
Sequence (P08908 1-422): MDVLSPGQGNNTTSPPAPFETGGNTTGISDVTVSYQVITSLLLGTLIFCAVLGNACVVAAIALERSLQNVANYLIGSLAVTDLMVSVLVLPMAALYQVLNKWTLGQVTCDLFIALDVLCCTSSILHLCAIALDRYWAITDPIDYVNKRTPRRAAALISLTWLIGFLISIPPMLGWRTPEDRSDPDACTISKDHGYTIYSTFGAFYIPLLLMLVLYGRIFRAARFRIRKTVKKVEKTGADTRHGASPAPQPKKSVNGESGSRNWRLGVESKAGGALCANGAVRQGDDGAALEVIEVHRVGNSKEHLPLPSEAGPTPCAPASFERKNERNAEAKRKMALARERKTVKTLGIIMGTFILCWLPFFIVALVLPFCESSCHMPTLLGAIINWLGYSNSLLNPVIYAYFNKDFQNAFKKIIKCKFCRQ
Assay: 5-HT1A cAMP HTRF assay (agonist test, Euroscreen FAST-0500C)
ATTRIBUTE MEASURED: EC50 (nM)
Provide only the numeric value, understood in nM.

In: May I ask what EC50 has been recorded for COc1cccc2c1CCC(=O)N2CCCN1CCN(c2cccc(Cl)c2)CC1 [OPC-14523] ?
Out: 26

---

target: 5-HT1B (Homo sapiens); experiment: 5-HT1B cAMP HTRF assay (agonist test, Euroscreen FAST-0501C); conditions: CHO-K1 cells, human recombinant receptor; cAMP with forskolin; read-out: partial agonism at 5-HT1B (potency)
Sequence (P28222 whole entry): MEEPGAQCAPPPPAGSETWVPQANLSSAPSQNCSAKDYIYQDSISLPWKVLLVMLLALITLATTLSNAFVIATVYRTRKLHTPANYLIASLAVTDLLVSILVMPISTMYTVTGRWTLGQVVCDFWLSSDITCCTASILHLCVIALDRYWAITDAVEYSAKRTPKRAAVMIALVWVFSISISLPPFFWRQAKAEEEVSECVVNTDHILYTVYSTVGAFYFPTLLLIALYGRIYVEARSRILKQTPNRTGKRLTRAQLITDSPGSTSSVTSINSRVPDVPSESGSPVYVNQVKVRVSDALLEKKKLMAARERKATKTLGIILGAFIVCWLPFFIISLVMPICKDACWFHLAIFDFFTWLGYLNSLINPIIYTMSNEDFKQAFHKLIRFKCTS
ATTRIBUTE MEASURED: pEC50
Just so you know, pEC50 here is -log10 of the concentration in molar units; reply with that number alone.

In: Dear colleague, I am looking for the recorded pEC50 of the following compound: COc1cccc2c1CCC(=O)N2CCCN1CCN(c2cccc(Cl)c2)CC1
Out: 8.15

---

biological target: 5-HT2B (Homo sapiens); assay: 5-HT2B IP-One HTRF assay (Euroscreen FAST-0506I)
Sequence (P41595 whole entry): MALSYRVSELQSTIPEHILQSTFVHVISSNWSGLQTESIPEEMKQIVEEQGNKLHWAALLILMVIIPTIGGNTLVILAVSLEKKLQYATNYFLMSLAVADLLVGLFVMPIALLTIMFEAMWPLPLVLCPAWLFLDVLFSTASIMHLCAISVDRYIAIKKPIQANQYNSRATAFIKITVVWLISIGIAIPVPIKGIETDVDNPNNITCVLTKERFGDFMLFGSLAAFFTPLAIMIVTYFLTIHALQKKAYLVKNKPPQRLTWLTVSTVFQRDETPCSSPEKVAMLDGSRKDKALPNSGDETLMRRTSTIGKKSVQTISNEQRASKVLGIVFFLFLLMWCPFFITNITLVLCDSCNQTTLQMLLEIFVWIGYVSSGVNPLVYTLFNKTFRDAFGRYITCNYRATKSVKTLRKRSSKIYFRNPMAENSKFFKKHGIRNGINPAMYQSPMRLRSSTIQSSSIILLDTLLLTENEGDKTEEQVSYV
ATTRIBUTE MEASURED: pIC50
In textbook form, pIC50 equals minus log to base ten of the concentration in mol/L.

In: Quick check: pIC50 of COc1cccc2c1CCC(=O)N2CCCN1CCN(c2cccc(Cl)c2)CC1 ?
Out: 6.80
